assayComment: small-molecule microarray binders of probe aShh, primary screen, biochemical, biotinylated probe, 635/667 nm fluorescence (AID 1114);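 further: probe is biotin-labelled aShh protein from a stem cell growth factor screen; measures binding of labelled protein to compounds printed on the slide; score merges feature fluorescence at 667 nm with signal-to-noise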
experimentalParameters: higher = more signal
Rule: composite z-score of 0.006 or more gives true (1); anything lower gives false (0).

Study these solved cases before continuing.
                            structuresmiles  assignedclass
0  C[N+](C)(C)CCCCCCNC(=O)[C@H]1C[C@H]2C(=O)NCC(=O)N2[C@H]1c1ccc(O)cc1       true (1)
1  O[C@@H](Cc1ccccc1)[C@@H](/C=C/C1CC1)N(CC#Cc1ccccc1)Cc1cccc(Cl)c1      false (0)
2  CCCNC(=O)[C@@H]1c2ccccc2C(=O)N(C(C)C)[C@H]1c1ccc(CO)cc1       true (1)
3  COCCCNC(=O)[C@]1(CCS(=O)(=O)c2ccccc2)N=C(c2ccc(OCCCO)cc2)O[C@@H]1c1ccccc1N=[N+]=[N-]       true (1)
4  C=C(CCCC)/C(=C/C[C@@H](OC(=O)c1ccncc1)c1ccccc1OCCO)c1cnc2ccccc2c1      false (0)
5  CCOC(=O)C1=CC[C@@H](c2cccc(Cl)c2)N(S(=O)(=O)c2ccc(C)cc2)C1      false (0)

Prompt line: composite z-score >= 0.006 for `CN(C)C(=O)[C@@]1(Cc2ccccc2CN=[N+]=[N-])N=C(c2ccc(OCCCO)cc2)O[C@H]1c1ccccc1CN=[N+]=[N-]` ?
Response line: true (1)

Prompt line: Next: `COCCCNC(=O)[C@@]1(Cc2ccccc2N=[N+]=[N-])N=C(c2ccc(OCCCO)cc2)O[C@H]1c1ccccc1`
Response line: true (1)

Data origin: PubChem BioAssay
